Each recorded value in this set is attributed to patent US11840686B2.

# Test system: human PKK mRNA
# assay-summary: Antisense inhibition of human PKK mRNA in HepaRG cells, 3,000 nM (Example 1)
# Type: cell-based
# condition-parameters: Table 1; PKK mRNA, HepaRG cells, 3,000 nM, electroporation, ~24 h, relative to untreated control cells
Strand notation (5' to 3'): a small letter for the sugar, then the base; units joined by * are phosphorothioate-linked, units joined directly phosphodiester-linked; [ ] holds rarer units or linkages, { } end groups; capitals alone tell only the bases. e = 2'-O-(2-methoxyethyl) (MOE); [5mC] = 5-methylcytosine; d = 2'-deoxy (DNA)
value-kind: % inhibition (%)
One number for each entry, in %.

// known answers, use as guide
1) 531005 (e[5mC]*eT*e[5mC]*eA*eA*dA*dG*dA*dG*dT*dA*dA*d[5mC]*d[5mC]*dA*eG*eA*eG*e[5mC]*eT; antisense) [compound 531005]; 76
2) 530939 (antisense eA*eA*e[5mC]*eA*eA*dG*dG*dA*dA*dA*dT*dG*dA*dA*dA*eT*eA*eA*eG*eT) [compound 530939]; 0
3) 530947 (antisense eG*eA*eA*eG*e[5mC]*dT*dA*d[5mC]*dA*dT*d[5mC]*d[5mC]*d[5mC]*d[5mC]*dA*e[5mC]*e[5mC]*eT*e[5mC]*eT) [compound 530947]; 27
4) 530941 (antisense eA*eA*e[5mC]*eT*eG*dT*dA*dG*d[5mC]*dA*dA*dA*d[5mC]*dA*dA*eG*eG*eA*eA*eA) [compound 530941]; 22
5) 530945 (antisense eA*eT*e[5mC]*e[5mC]*e[5mC]*d[5mC]*dA*d[5mC]*d[5mC]*dT*d[5mC]*dT*dG*dA*dA*eG*eA*eA*eG*eG) [compound 530945]; 0
6) 531004 (eA*eG*eA*eG*eT*dA*dA*d[5mC]*d[5mC]*dA*dG*dA*dG*d[5mC]*dT*e[5mC]*e[5mC]*e[5mC]*eT*eT; antisense) [compound 531004]; 76
7) 530950 (antisense eA*e[5mC]*e[5mC]*eT*eT*dG*dG*dG*dT*dG*dG*dA*dA*dT*dG*eT*eG*e[5mC]*eA*e[5mC]) [compound 530950]; 47
8) 530951 (antisense e[5mC]*eA*eA*eA*e[5mC]*dA*d[5mC]*d[5mC]*dT*dT*dG*dG*dG*dT*dG*eG*eA*eA*eT*eG) [compound 530951]; 49
9) 530980 (antisense eT*eT*eG*e[5mC]*eA*dG*dG*dT*dT*dA*dA*dA*dA*dG*dG*e[5mC]*eT*eA*eT*eA) [compound 530980]; 29
10) 530961 (antisense eT*eT*eG*eG*e[5mC]*dA*dT*dT*d[5mC]*dT*dT*d[5mC]*dA*dA*d[5mC]*eA*e[5mC]*eT*eG*e[5mC]) [compound 530961]; 88

The record that follows has no % inhibition shown yet.
Input: Need % inhibition, item 530935 (antisense eG*e[5mC]*eT*eT*eG*dA*dA*dT*dA*dA*dA*dA*dT*d[5mC]*dA*eT*eT*e[5mC]*eT*eG) [compound 530935]
Output: 0

###

Please provide measured percent inhibition of PKK at 5.00 μM for the entries that follow.
# System: human PKK mRNA
# assay-summary: Dose-dependent antisense inhibition of human PKK in HepaRG cells, 0.19-5.00 uM (Example 5)
# Type: cell-based
# condition-parameters: 5.00 μM, HepaRG cells, electroporation, approximately 16 hours; Table 37
Strand notation (5' to 3'): a small letter for the sugar, then the base; units joined by * are phosphorothioate-linked, units joined directly phosphodiester-linked; [ ] holds rarer units or linkages, { } end groups; capitals alone tell only the bases. e = 2'-O-(2-methoxyethyl) (MOE); [5mC] = 5-methylcytosine; d = 2'-deoxy (DNA)
One number for each entry, in %.

// known answers, use as guide
1) 546304 (antisense e[5mC]*eT*eT*eT*eT*dA*dT*dT*dT*dG*dT*dG*dA*dG*dA*eA*eA*eG*eG*eT) [compound 546304]; 71
2) 547622 (antisense eG*eT*e[5mC]*eA*e[5mC]*dT*dG*dT*dA*d[5mC]*d[5mC]*dT*dA*dT*dA*eA*e[5mC]*eT*e[5mC]*eT) [compound 547622]; 90

Quick one: give me percent inhibition of PKK at 5.00 μM for each item below, same order please.
1. 547731 (eG*eG*eA*eT*eT*dG*dG*dT*dG*dG*dT*dG*dG*dG*dA*eT*eT*eG*eG*eT; antisense) [compound 547731]
2. 547618 (antisense eA*e[5mC]*eT*eG*eT*d[5mC]*d[5mC]*dT*dA*dT*dA*dT*d[5mC]*dA*d[5mC]*eT*eG*eT*eA*e[5mC]) [compound 547618]

Output:
[56, 98]

###

# System: human PKK mRNA
# assay-summary: Antisense inhibition of human PKK mRNA in HepaRG cells, 1,000 nM, MOE/deoxy/cEt oligonucleotides (Example 3)
# Type: cell-based
# condition-parameters: PKK mRNA, HepaRG cells, 1,000 nM antisense oligonucleotide; Table 31
Strand notation (5' to 3'): a small letter for the sugar, then the base; units joined by * are phosphorothioate-linked, units joined directly phosphodiester-linked; [ ] holds rarer units or linkages, { } end groups; capitals alone tell only the bases. e = 2'-O-(2-methoxyethyl) (MOE); k = constrained ethyl (cEt); [5mC] = 5-methylcytosine; d = 2'-deoxy (DNA)
value-kind: % inhibition (%)
Numbers only, in %.

// known answers, use as guide
1) 548627 (antisense e[5mC]*e[5mC]*k[5mC]*dA*d[5mC]*dA*dT*dG*dT*dA*d[5mC]*d[5mC]*dA*k[5mC]*k[5mC]*eG) [compound 548627]; 22
2) 548614 (antisense eT*eG*kG*dT*dG*dG*d[5mC]*dG*dG*dG*dA*dT*d[5mC]*kG*kG*eT) [compound 548614]; 0

The record that follows has no % inhibition shown yet.
Input: Need % inhibition, item 548656 (antisense eT*eT*kA*d[5mC]*dA*dA*d[5mC]*dA*dG*dA*d[5mC]*d[5mC]*d[5mC]*kA*kG*eG) [compound 548656]
Output: 35

###

Please provide measured % inhibition for the entries that follow.
# System: human PKK mRNA
# assay-summary: Antisense inhibition of human PKK mRNA in HepaRG cells, 3,000 nM (Example 1)
# Assay type: cell-based
# condition-parameters: Table 2; PKK mRNA, HepaRG cells, 3,000 nM, electroporation, ~24 h, relative to untreated control cells
Strand notation (5' to 3'): a small letter for the sugar, then the base; units joined by * are phosphorothioate-linked, units joined directly phosphodiester-linked; [ ] holds rarer units or linkages, { } end groups; capitals alone tell only the bases. e = 2'-O-(2-methoxyethyl) (MOE); [5mC] = 5-methylcytosine; d = 2'-deoxy (DNA)
Numbers only, in %.

1) 531008 (eT*eG*e[5mC]*eT*eG*dG*dA*dA*dG*dA*dT*dG*dT*dT*d[5mC]*eA*eT*eG*eT*eG; antisense) [compound 531008]; 51
2) 531011 (e[5mC]*e[5mC]*eA*eA*eG*dA*dA*dG*dA*dG*dT*dT*dT*dG*dT*eT*e[5mC]*e[5mC]*eT*e[5mC]; antisense) [compound 531011]; 0
3) 531057 (antisense e[5mC]*eA*eT*e[5mC]*eT*dT*dT*dT*d[5mC]*d[5mC]*d[5mC]*d[5mC]*d[5mC]*dT*dT*e[5mC]*eT*eT*eT*eA) [compound 531057]; 48
4) 531068 (e[5mC]*e[5mC]*eA*eT*eG*dT*dA*d[5mC]*dT*d[5mC]*dA*dG*d[5mC]*dG*dA*e[5mC]*eT*eT*eT*eG; antisense) [compound 531068]; 59

The record that follows has no % inhibition shown yet.
Input: Need % inhibition, item 531041 (antisense eA*eA*eA*eG*eG*dA*dA*dT*dA*dT*dT*dT*dA*d[5mC]*d[5mC]*eT*eT*eT*eT*eG) [compound 531041]
Output: 68

###

# Test system: human PKK mRNA
# assay-summary: Antisense inhibition of human PKK mRNA in HepaRG cells, 3,000 nM (Example 1)
# Assay type: cell-based
# condition-parameters: Table 4; HepaRG cells, electroporation with 3,000 nM antisense oligonucleotide, approx. 24 hours; PKK mRNA by RT-PCR (RTS3454), relative to untreated control cells
Strand notation (5' to 3'): a small letter for the sugar, then the base; units joined by * are phosphorothioate-linked, units joined directly phosphodiester-linked; [ ] holds rarer units or linkages, { } end groups; capitals alone tell only the bases. e = 2'-O-(2-methoxyethyl) (MOE); [5mC] = 5-methylcytosine; d = 2'-deoxy (DNA)
value-kind: % inhibition (%)
Give bare numbers, in %.

// known answers, use as guide
1) 531162 (antisense eA*eA*eT*eT*eT*d[5mC]*d[5mC]*d[5mC]*dA*dG*dA*dT*dG*dT*dA*eT*eT*eA*eG*eT) [compound 531162]; 43
2) 531184 (antisense eA*e[5mC]*eT*e[5mC]*eT*dT*dA*dT*dT*dA*dG*d[5mC]*dT*dG*dG*eT*eA*eG*eA*eA) [compound 531184]; 74

Input: Need % inhibition, item 531214 (eT*eT*eT*eT*eT*d[5mC]*dT*dT*dT*dA*dA*dA*dT*dT*dT*eT*eG*e[5mC]*eT*eA; antisense) [compound 531214]
Output: 37
